Kindly supply the reported IC50 values for the records listed here.
# system.name: Recombinant human LSD1 (Homo sapiens, UniProt O60341)
# measurement.notes: LSD1 inhibition assay (HTRF LSD1 Histone H3K4 mono-demethylation assay, me1->me0)
# Assay type: biochemical
# setup.conditions: 20 nM recombinant human LSD1, 95 nM H3K4(me1) biotinylated peptide, 15 min preincubation, 60 min at 25° C., read-out: LSD1 inhibition IC50 (nM range)

Here are 3 compounds together with their reported answers.
> print(dat)
                                   compound        observed
1  Cc1nocc1-c1c(CC2CNCCO2)cccc1-c1ccc(C#N)c(F)c1 (stereo not shown)    25 to 100 nM
2  COC1(C)CCN(c2ccc(CC3CNCCO3)cc2-c2ccc(C#N)c(F)c2)CC1 (stereo not shown)  100 to 1000 nM
3  N#Cc1ccc(-c2cc(CN3[C@@H]4CC[C@H]3[C@@H](N)C4)ccc2Cl)cc1F (racemic)    25 to 100 nM

Req: Item CN[C@H]1CCN(Cc2cccc(-c3ccc(C#N)c(F)c3)c2C2CC2)C1 : provide IC50
Resp: 25 to 100 nM
